Type: physicochemical
condition-description: stored at room temperature (21-25° C.), day 60
Param label: returns 1 (yes) when Stability in Powder Concentrate (content by LCMSMS) < 0.1 mg/g powder, returns 0 (no) otherwise, including exact equality.

> print(dat)
                                   compound  answer.label
1  CCCCCc1cc2c(c(O)c1C(=O)O)[C@@H]1C=C(C)CC[C@H]1C(C)(C)O2 [D9 THCA, delta-9-tetrahydrocannabinolic acid]        0 (no)
2  C=C(C)[C@@H]1CCC(C)=C[C@H]1c1c(O)cc(CCC)cc1O [CBDV, cannabidivarin]       1 (yes)
3  CCCCCc1cc(O)c2c(c1)OC(C)(C)[C@@H]1CCC(C)=C[C@@H]21 [D9 THC, delta-9-tetrahydrocannabinol, reference compound]        0 (no)
4  Cc1c(C)c2c(c(C)c1OC(=O)CCC(=O)O)CC[C@@](C)(CCC[C@H](C)CCC[C@H](C)CCCC(C)C)O2 [α-Tocopheryl succinate]        0 (no)
5  C=C(C)[C@@H]1CCC(C)=C[C@H]1c1c(O)cc(CCCCC)cc1O [CBD, cannabidiol, reference compound]        0 (no)

* * *

assay-summary: Stability of cannabinoid and Vitamin E components of Beverage 2 (AB Red) stored at 8° C. and 21-25° C., LCMSMS over 570 days
condition-description: 8° C., 90 days
property-measured: Stability of Cannabinoids in AB Red (µg/mL)

> print(dat)
                                   compound  measurement.units  numeric.result
1  CCCCCc1cc2c(c(O)c1C(=O)O)[C@@H]1C=C(C)CC[C@H]1C(C)(C)O2 [D9 THCA, delta-9-tetrahydrocannabinolic acid]              µg/mL            1.34
2  CCCCCc1cc(O)c2c(c1)OC1(C)CCC3C1C2C3(C)C (stereo not drawn)              µg/mL           0.501
3  CCCCCc1cc(O)c2c(c1)OC(C)(C)c1ccc(C)cc1-2              µg/mL            2.80
4   CCCCCc1cc(O)c(C/C=C(\C)CCC=C(C)C)c(O)c1              µg/mL            4.73
5  CCCc1cc(O)c2c(c1)OC(C)(C)[C@@H]1CCC(C)=C[C@@H]21 [THCV, delta-9-tetrahydrocannabivarin]              µg/mL            3.10
6  CCCCCc1cc(O)c2c(c1)OC(C)(CCC=C(C)C)C=C2 (stereo not drawn)              µg/mL           0.287
7  C=C(C)[C@@H]1CCC(C)=C[C@H]1c1c(O)cc(CCCCC)c(C(=O)O)c1O              µg/mL            1.68
8  C=C(C)[C@@H]1CCC(C)=C[C@H]1c1c(O)cc(CCC)cc1O              µg/mL           0.196
9  CCCCCc1cc(O)c2c(c1)OC(C)(C)[C@@H]1CCC(C)=C[C@@H]21 [D9 THC, delta-9-tetrahydrocannabinol, reference compound]              µg/mL            13.0
